test system: Erythroleukemia cell line; assay: Percent benzidine-positive cell differentiation in friend erythroleukemia cells; assay type: functional, Mus musculus
Field: Differentiation. Provide a value for each of the compounds that follow.
Don't forget the unit after the number, please.

Here's what some known entries look like.
- compound: "[N-]=[N+]=Nc1nc2c(O)ncnc2n1[C@@H]1O[C@H](CO)[C@@H](O)[C@H]1O"
  quantity.kind: "Differentiation"
  observed.value: "30%"
- compound: "OC[C@H]1O[C@@H](n2c(Br)nc3c(O)ncnc32)[C@@H](O)[C@@H]1O"
  quantity.kind: "Differentiation"
  observed.value: "1%"
- compound: "O=c1[nH]cnc2c1ncn2[C@@H]1O[C@H](CO)[C@@H](O)[C@H]1O [INOSINE]"
  quantity.kind: "Differentiation"
  observed.value: "12%"

// batch mode: one Differentiation value per listed entry
1. [N-]=[N+]=Nc1nc2c(O)ncnc2n1[C@@H]1O[C@H](CO)[C@@H](O)[C@@H]1O
2. CSc1ncnc2c1ncn2[C@@H]1O[C@H](CO)[C@@H](O)[C@H]1O
3. CSc1ncnc2c1ncn2[C@@H]1O[C@H](CO)[C@@H](O)[C@@H]1O
4. Nc1ncnc2c1ncn2[C@@H]1O[C@H](CO)[C@@H](O)[C@@H]1O [VIDARABINE]
5. OC[C@H]1O[C@@H](n2cnc3c(NO)ncnc32)[C@@H](O)[C@@H]1O
6. Nc1nc2c(O)ncnc2n1[C@@H]1O[C@H](CO)[C@@H](O)[C@H]1O

20%
51%
49%
4%
74%
1%

Origin of the recorded values: ChEMBL document CHEMBL1122820
